- Tested on: MOLT-4 leukemia
- TEST PROTOCOL: NCI tumour cell line growth inhibition, 48 h
Measured log10 TGI accompanies every entry in the list below.
TEST READOUT: log10 TGI (log10 of the value in µM)

COMPOUND | log10 TGI
C/C=C(/I)CBr | 1.75
Cc1nc(N)nc2c1CCC(O)S2 (configuration not stated) | 0.92
O=C1/C(=C/c2cccc(Br)c2)COc2ccc(O)cc21 | 1.04
COc1ccc(-c2cs/c(=N\N=C\c3ccc(O)cc3O)n2/N=C/c2ccc(O)cc2O)cc1 | 0.70
CC1=C[C@H]2c3c([nH]c4ccccc34)C(c3c[nH]c4ccccc34)[C@H]2CC1 (some centres not stated) | 0.77
O=S(=O)(Nc1nc2ccccc2nc1Nc1ccc2ccccc2c1)c1ccccc1 | 1.81
Cc1cc2/c(=C\c3ccc(N(C)C)cc3)c3ccccc3n2[n+]1C | 0.12
COc1ccc(N=NC(C(=O)c2ccccc2)C(=O)c2ccccc2)cc1 | 1.86
COc1ccc(/C=C/C(=O)/C=C/c2cc3ccccc3[nH]c2=O)cc1 | 0.97
C=CCNc1nc2c(s1)C(=O)c1ccccc1C2=O | 1.03

* * *

- Tested on: IGROV1 ovarian
- TEST PROTOCOL: NCI tumour cell line growth inhibition, 48 h

COMPOUND | TGI
COc1ccc(NC(=O)/C(=C/c2ccccc2)C(C)=O)cc1 | 38.6 µM
C#C/C=C\CCCC/C=C\C#CC#CCCCC#CC#C[C@H](COS(=O)(=O)O)OS(=O)(=O)O | > 100 µM
CC(=O)OC12C3C4C1C1C2C3C41OC(C)=O (centres undefined) | > 100 µM
COC(CN(C(C)=O)C1CCC2(SCCS2)c2[nH]c3ccccc3c21)OC (centres undefined) | > 100 µM
CC(C)CCC[C@@H](C)[C@H]1CC[C@H]2[C@@H]3CC[C@H]4C[C@@H](CCC=C(c5cc(Cl)c(O)c(C(=O)O)c5)c5cc(Cl)c(O)c(C(=O)O)c5)CC[C@]4(C)[C@H]3CC[C@]12C | > 100 µM
COc1ccc2nc(-c3ccccc3)cc(OCC(=O)O)c2c1 | > 100 µM
Cc1ccc(S(=O)(=O)OC2C(O)C(O)OC2C(c2cc(O)c3c(c2O)C(=O)c2ccccc2C3=O)c2cc(O)c3c(c2O)C(=O)c2ccccc2C3=O)cc1 (centres undefined) | > 10 µM
O=c1cc(CO)oc2c3c(cc(O)c12)OCC(COC1OC(CO)C(O)C(O)C1O)=CC3 (centres undefined) | > 100 µM
COc1cc2c(cc1OC)C(=O)N(c1ccc(O)cc1)C2=O | > 100 µM
COc1cccc(/C(C#N)=C/c2nc3c(N4CCOCC4)nc(Cl)nc3n2C)c1 | 2.49 µM
Clc1ccc(C(c2ccccc2Cl)C(Cl)Cl)cc1 (centres undefined) | 30.7 µM
O=C(N/N=C/c1cc(Cl)cc(Cl)c1[O-])c1ccccc1O.O=C(N/N=C/c1cc(Cl)cc(Cl)c1[O-])c1ccccc1O.[Co+2] | 6.97 µM
O=C1CC2CC3OC3[C@H]3c4cc5c(cc4C(=O)N1C23)OCO5 (some centres undefined) | > 100 µM
CS(=O)(=O)c1nc(-c2cc3c(c(S(C)(=O)=O)n2)CCCC3)cc2c1CCCCC2 | 54.3 µM
O=C1c2ccccc2-[n+]2ccc3c([nH]c4ccccc43)c21 | 0.671 µM
Cc1ccccc1NC(=O)c1cc(-c2ccc([N+](=O)[O-])cc2)nc(=S)[nH]1 | > 100 µM
Cc1ccc(NC(=O)CCc2nc(N)nc(N)c2-c2ccccc2)cc1C | > 100 µM
Cn1c(C(=O)c2ccncc2)cc2ccccc21 | > 100 µM
C=C(CC(NC(=O)c1ccc(C(CC)Cc2cnc3nc(N)nc(N)c3n2)cc1)C(=O)O)C(=O)O (centres undefined) | > 100 µM
